Reported Inhibition rate (%) values for a set of molecules
Biological target: AChE (Musca domestica, UniProt Q7YWJ9)
Sequence (Q7YWJ9 81-659): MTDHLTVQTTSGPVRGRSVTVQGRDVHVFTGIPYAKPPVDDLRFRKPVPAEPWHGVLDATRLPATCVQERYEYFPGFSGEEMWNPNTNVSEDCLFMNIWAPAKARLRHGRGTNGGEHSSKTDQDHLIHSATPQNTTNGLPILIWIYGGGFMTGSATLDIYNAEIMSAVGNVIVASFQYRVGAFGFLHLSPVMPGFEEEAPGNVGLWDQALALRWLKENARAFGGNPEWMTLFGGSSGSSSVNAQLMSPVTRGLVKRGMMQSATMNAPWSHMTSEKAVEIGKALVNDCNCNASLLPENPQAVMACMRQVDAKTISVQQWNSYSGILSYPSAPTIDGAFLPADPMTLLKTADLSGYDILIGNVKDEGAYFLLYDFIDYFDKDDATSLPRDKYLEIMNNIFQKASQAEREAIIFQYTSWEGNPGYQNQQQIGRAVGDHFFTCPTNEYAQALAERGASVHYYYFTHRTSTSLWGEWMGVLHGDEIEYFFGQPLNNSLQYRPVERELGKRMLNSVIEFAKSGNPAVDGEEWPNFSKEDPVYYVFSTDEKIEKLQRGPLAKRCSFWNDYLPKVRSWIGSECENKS
Assay: biochemical
Format: biochemical, fly
Settings: test concentration of the compound 10 μM
Procedure: AChE (E.C. 3.1.1.7) (BR, 200 u/mg) from fly’s head and BuChE (E.C. 3.1.1.8) (BR, 20 u/mg) from horse serum were purchased from Shanghai Yuanye biological technology Co. Ltd (Shanghai, China). The inhibitory activities of the compounds against AChE were evaluated according to Ellman’s coupled enzyme assay[47] with the following modifications. […] Inhibition rates of the enzyme were calculated relative to a control sample. […]

molecule: Cn1c2c(c3ccccc31)CC[N+](c1ccccc1Br)=C2.[Br-]
Inhibition rate (%): 5.9 ± 1.0 qrs %

molecule: Cn1c2c(c3ccccc31)CC[N+](c1cccc(C(F)(F)F)c1)=C2.[Br-]
Inhibition rate (%): 12.8 ± 2.1 kln %

molecule: CCCCn1c2ccccc2c2cc[n+](-c3ccccc3)cc21.[Br-] [Compound B42, 9-Butyl-2-phenyl-β-carboline bromide]
Inhibition rate (%): 65.7 ± 0.6 m %

molecule: Cn1c2c(c3ccccc31)CC[N+](c1cccc(C#N)c1)=C2.[Br-]
Inhibition rate (%): 18.9 ± 0.3 lmn %

molecule: Cc1ccc2c(c1)c1c(n2C)C=[N+](c2ccccc2)CC1.[Br-]
Inhibition rate (%): 70.3 ± 2.2 bc %

molecule: CCn1c2ccccc2c2cc[n+](-c3ccccc3)cc21.[Br-] [Compound B38, 9-Ethyl-2-phenyl-β-carboline bromide]
Inhibition rate (%): 87.8 ± 1.1 efgh %

molecule: Cn1c2c(c3ccccc31)CC[N+](c1cccc([N+](=O)[O-])c1)=C2.[Br-]
Inhibition rate (%): 14.5 ± 3.9 mnop %

molecule: C=CCn1c2ccccc2c2cc[n+](-c3ccccc3)cc21.[Br-] [Compound B41, 9-Allyl-2-phenyl-β-carboline bromide]
Inhibition rate (%): 78.2 ± 1.6 k %

====

Target: AChE (Musca domestica, UniProt Q7YWJ9)
Experiment: biochemical
Format: biochemical, fly
Settings: test concentration of the compound 10 μM
Reported Inhibition rate (%) values for a set of compounds
readout: Inhibition rate (%)

query.smiles: Cn1c2c(c3ccccc31)CC[N+](c1cccc(O)c1)=C2.[Br-]
readout: Inhibition rate (%)
obs.value: 51.8 ± 9.1 fg %
//
query.smiles: Cn1c2c(c3ccccc31)CC[N+](c1ccccc1Cl)=C2.[Br-]
readout: Inhibition rate (%)
obs.value: 2.4 ± 8.0 stu %
//
query.smiles: Cn1c2c(c3ccccc31)CC[N+](c1ccccc1)=C2.[Br-]
readout: Inhibition rate (%)
obs.value: 40.9 ± 2.1 ij %
//
query.smiles: Cn1c2c(c3ccccc31)CC[N+](c1cccc(F)c1)=C2.[Br-]
readout: Inhibition rate (%)
obs.value: 22.4 ± 1.1 l %
//
query.smiles: Cc1cccc([N+]2=Cc3c(c4ccccc4n3C)CC2)c1.[Br-]
readout: Inhibition rate (%)
obs.value: 28.6 ± 1.7 k %
//
query.smiles: C1=[N+](c2ccccc2)CCc2c1[nH]c1ccccc21.[Br-]
readout: Inhibition rate (%)
obs.value: 41.3 ± 1.4 ij %
//
query.smiles: Cn1c2ccccc2c2cc[n+](-c3ccccc3C#N)cc21.[Br-]
readout: Inhibition rate (%)
obs.value: 68.7 ± 0.7 lm %
//
query.smiles: Cn1c2ccccc2c2cc[n+](-c3cccc(C(F)(F)F)c3)cc21.[Br-]
readout: Inhibition rate (%)
obs.value: 41.0 ± 1.9 rs %

====

Molecular target: AChE (Musca domestica)
Assay: biochemical
Format: biochemical, fly
Conditions: test concentration of the compound 10 μM

query.smiles: C=CCn1c2c(c3ccccc31)CC[N+](c1ccccc1)=C2.[Br-]
target.entity: AChE (Musca domestica)
Inhibition rate (%): 74.4 ± 1.1 ab %
//
query.smiles: COc1ccc(-[n+]2ccc3c4ccccc4n(C)c3c2)cc1.[Br-]
target.entity: AChE (Musca domestica)
Inhibition rate (%): 90.7 ± 0.8 def %
//
query.smiles: Cn1c2ccccc2c2cc[n+](-c3ccc(Br)cc3Br)cc21.[Br-]
target.entity: AChE (Musca domestica)
Inhibition rate (%): 96.7 ± 0.05 a %
//
query.smiles: Cn1c2ccccc2c2cc[n+](-c3ccc(Cl)cc3)cc21.[Br-]
target.entity: AChE (Musca domestica)
Inhibition rate (%): 91.2 ± 1.5 cde %
//
query.smiles: Cn1c2ccccc2c2cc[n+](-c3ccc(Br)cc3)cc21.[Br-]
target.entity: AChE (Musca domestica)
Inhibition rate (%): 95.4 ± 0.8 ab %

====

Target: AChE (Musca domestica)
Assay: biochemical
Format: biochemical, fly
Friendly reminder: SI: selectivity index, ratio IC50 (BuChE)/IC50 (AChE) below 10 is True, at or above is False.

query.smiles: CCCCn1c2c(c3ccccc31)CC[N+](c1ccccc1)=C2.[Br-]
assigned.label: True

query.smiles: Cn1c2ccccc2c2cc[n+](-c3cccc(F)c3)cc21.[Br-]
assigned.label: False

query.smiles: Cc1cccc(-[n+]2ccc3c4ccccc4n(C)c3c2)c1.[Br-]
assigned.label: False

query.smiles: Cn1c2ccccc2c2cc[n+](-c3ccc(Br)cc3Br)cc21.[Br-]
assigned.label: False

query.smiles: Cn1c2ccccc2c2cc[n+](-c3cccc(O)c3)cc21.[Br-]
assigned.label: True

query.smiles: CC(C)n1c2c(c3ccccc31)CC[N+](c1ccccc1)=C2.[Br-]
assigned.label: True

query.smiles: Cn1c2ccccc2c2cc[n+](-c3cccc(I)c3)cc21.[Br-]
assigned.label: True

query.smiles: Cn1c2ccccc2c2cc[n+](-c3ccccc3F)cc21.[Br-]
assigned.label: True

====

Target: AChE (Musca domestica, UniProt Q7YWJ9)
Experiment: biochemical
Format: biochemical, fly
Settings: test concentration of the compound 10 μM

compound: Cn1c2c(c3ccccc31)CC[N+](c1ccc(Br)cc1)=C2.[Br-]
Inhibition rate (%): 60.3 ± 1.6 d %
--
compound: Cn1c2c(c3ccccc31)CC[N+](c1ccccc1C#N)=C2.[Br-]
Inhibition rate (%): 10.1 ± 1.6 pqr %
--
compound: Cn1c2ccccc2c2cc[n+](-c3ccc(Cl)cc3Cl)cc21.[Br-]
Inhibition rate (%): 90.6 ± 1.0 def %
--
compound: COc1ccccc1[N+]1=Cc2c(c3ccccc3n2C)CC1.[Br-]
Inhibition rate (%): 5.8 ± 2.4 qrs %
--
compound: CC(C)n1c2c(c3ccccc31)CC[N+](c1ccccc1)=C2.[Br-]
Inhibition rate (%): 68.9 ± 5.1 bc %
--
compound: Cn1c2ccccc2c2cc[n+](-c3cccc(F)c3)cc21.[Br-]
Inhibition rate (%): 70.5 ± 2.2 l %
--
compound: C1=[N+](c2ccccc2)CCc2c1n(Cc1ccccc1)c1ccccc21.[Br-]
Inhibition rate (%): 31.2 ± 4.4 ef %
--
compound: Br.c1ccc(-n2ccc3c4ccccc4nc-3c2)cc1 [Compound B46, 2-Phenyl-β-carboline bromide]
Inhibition rate (%): 43.0 ± 1.8 r %
--
compound: Cn1c2c(c3ccccc31)CC[N+](c1c(F)cccc1F)=C2.[Br-]
Inhibition rate (%): −3.3 ± 2.0 uv %
--
compound: Cn1c2c(c3ccccc31)CC[N+](c1ccc(Br)cc1F)=C2.[Br-]
Inhibition rate (%): 11.1 ± 2.8 opq %
--
compound: Cn1c2ccccc2c2cc[n+](-c3ccc(O)cc3)cc21.[Br-]
Inhibition rate (%): 82.1 ± 2.5 ij %
--
compound: Cn1c2c(c3ccccc31)CC[N+](c1cccc(I)c1)=C2.[Br-]
Inhibition rate (%): 10.1 ± 2.8 pqr %
--
compound: Cn1c2ccccc2c2cc[n+](-c3ccccc3)cc21.[Br-] [Compound B1, 9-Methyl-2-phenyl-β-carboline bromide]
Inhibition rate (%): 71.5 ± 0.3 l %
--
compound: Cn1c2ccccc2c2cc[n+](-c3ccccc3I)cc21.[Br-]
Inhibition rate (%): 43.3 ± 1.8 r %
--
compound: CC(C)n1c2ccccc2c2cc[n+](-c3ccccc3)cc21.[Br-]
Inhibition rate (%): 86.9 ± 0.8 fgh %
--
compound: Cn1c2c(c3ccc(F)cc31)CC[N+](c1ccccc1)=C2.[Br-]
Inhibition rate (%): 59.3 ± 2.1 de %
--
compound: Cn1c2ccccc2c2cc[n+](-c3cccc(O)c3)cc21.[Br-]
Inhibition rate (%): 72.1 ± 1.8 l %
--
compound: Cn1c2c(c3ccccc31)CC[N+](c1ccccc1I)=C2.[Br-]
Inhibition rate (%): −10.6 ± 3.0 w %

====

Target: BuChE (Equus caballus, UniProt P81908)
Construct: BuChE (E.C. 3.1.1.8) (BR, 20 u/mg) from horse serum
Sequence (P81908 whole entry): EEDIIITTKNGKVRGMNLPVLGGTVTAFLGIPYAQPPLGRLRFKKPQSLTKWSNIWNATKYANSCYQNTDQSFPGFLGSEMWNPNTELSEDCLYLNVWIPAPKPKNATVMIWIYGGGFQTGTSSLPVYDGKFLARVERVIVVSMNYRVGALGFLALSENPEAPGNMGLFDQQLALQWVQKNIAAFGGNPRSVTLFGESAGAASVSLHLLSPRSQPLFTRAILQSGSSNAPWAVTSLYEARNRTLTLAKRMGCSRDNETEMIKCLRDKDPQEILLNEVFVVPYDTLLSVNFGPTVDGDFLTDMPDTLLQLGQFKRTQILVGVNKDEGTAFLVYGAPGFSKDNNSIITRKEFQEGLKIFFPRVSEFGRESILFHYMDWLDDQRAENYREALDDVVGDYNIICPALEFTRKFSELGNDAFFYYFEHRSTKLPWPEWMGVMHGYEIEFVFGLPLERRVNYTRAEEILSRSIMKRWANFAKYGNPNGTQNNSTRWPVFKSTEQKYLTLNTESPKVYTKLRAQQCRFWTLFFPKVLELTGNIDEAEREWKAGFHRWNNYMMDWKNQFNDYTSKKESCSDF
Experiment: BuChE inhibition, Ellman's method
Conditions: read-out: IC50 ± S.D BuChE
pIC50: −log10 of the molar value.
readout: pIC50

molecule: Cn1c2c(c3ccccc31)CC[N+](c1cccc(O)c1)=C2.[Br-] [Compound A15]
obs.value: 5.00

molecule: Cn1c2c(c3ccccc31)CC[N+](c1ccccc1)=C2.[Br-] [Compound A1]
obs.value: 5.00

molecule: Cn1c2ccccc2c2cc[n+](-c3ccc(Cl)cc3)cc21.[Br-] [Compound B7]
obs.value: 4.22
